- experimental.system: T1, hMPV PostF trimer (human metapneumovirus, strain B2)
- T1 construct: also called MPV PostF (dPFv1)
- assay.info: BLI, mAb on anti-human Fc sensor
Listing of entries alongside the reported Octet binding response.
Express your answer in nm, writing the number without its unit.

M2A06 (antibody, V domains shown, IgG) VH: QVQLVQSGAEVKKPGASVKISCKASGYSFSNYYIQWVRQAPGQGLEWLGIINPSGGSTDYAQKFEGRVSMTRDTSTNTVYMEMSSLRSEDTASYYCVRSLANGSGSPWGQGTLVIVSS VL: DIQMTQSPSTLSASVGDRVTITCRASQSISSRLAWYQQKPGKAPNLLLYDASRSESGVPSRFSGSGSGTEFTLTISSLQPDDVATYYCQHYSIYSRWTFGQGTKVEIK | -0.0352

Kindly note the recorded Octet binding response for M3A11 (antibody, V domains shown, IgG) VH: EVQLVESGGGLVQPGGSLRLSCAASGFTFSDYSMNWVRQAPGQGLEWISYISSTGSTIYYADSVRGRFTISRDNAKNSLYLQMNTLRAEDTAVYYCARGKTTVTIWFDPWGQGTLVTVSS VL: SYVLTQPPSVSVAPGQTARITCGGNNIGSKSVHWYQQKPGQAPVLVVYDDSDRPSGIPERFSGSNSGNTATLTISRVEAGDEADYYCQVWHSSSDWVFGGGTRLTVL , which is 0.414
